Method summary: self-splicing fitness, log relative to wild type (ln ratio); higher = more splicing; Tetrahymena group I intron in knt gene, E. coli kanamycin selection, DiMSum; sequences stand for … in CUCUCU…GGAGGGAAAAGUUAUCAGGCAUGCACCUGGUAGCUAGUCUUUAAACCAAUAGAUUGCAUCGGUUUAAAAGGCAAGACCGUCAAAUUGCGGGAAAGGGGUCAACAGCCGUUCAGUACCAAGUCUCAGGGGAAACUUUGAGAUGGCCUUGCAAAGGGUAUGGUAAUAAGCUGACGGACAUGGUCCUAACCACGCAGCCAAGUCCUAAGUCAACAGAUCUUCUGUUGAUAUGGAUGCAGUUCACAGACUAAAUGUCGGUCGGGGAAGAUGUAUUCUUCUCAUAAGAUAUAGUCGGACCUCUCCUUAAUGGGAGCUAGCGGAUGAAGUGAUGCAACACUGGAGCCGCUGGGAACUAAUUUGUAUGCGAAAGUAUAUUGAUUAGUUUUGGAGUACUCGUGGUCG;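 note: selection with 25 µg/mL kanamycin versus none on LB agar overnight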
Condition notes: 30 °C
Binary call on self-splicing fitness (ln): Yes from -3 upward, No beneath that.

QUERY: Check the entry GAAAAGCAAUAUUACGUGGC : does self-splicing fitness (ln) equal or exceed -3?
RESULT: No

QUERY: Check the entry ACCAAGCAAUAUUACGGCAG : does self-splicing fitness (ln) equal or exceed -3?
RESULT: No

QUERY: Check the entry CAGCAGCAAUAUUACGUGUU : does self-splicing fitness (ln) equal or exceed -3?
RESULT: No

QUERY: Check the entry UGUCAGCAAUAUUACGCUAU : does self-splicing fitness (ln) equal or exceed -3?
RESULT: Yes

QUERY: Check the entry AUGGAGCAAUAUUACGGCAC : does self-splicing fitness (ln) equal or exceed -3?
RESULT: Yes

Ref: the supplement of paper PMC7877785
